Cited source: patent US12258327B2

studyTarget: EGFR L858R/C797S (Homo sapiens, UniProt P00533, C797S/L858R)
Sequence (P00533 25-1210 C797S/L858R): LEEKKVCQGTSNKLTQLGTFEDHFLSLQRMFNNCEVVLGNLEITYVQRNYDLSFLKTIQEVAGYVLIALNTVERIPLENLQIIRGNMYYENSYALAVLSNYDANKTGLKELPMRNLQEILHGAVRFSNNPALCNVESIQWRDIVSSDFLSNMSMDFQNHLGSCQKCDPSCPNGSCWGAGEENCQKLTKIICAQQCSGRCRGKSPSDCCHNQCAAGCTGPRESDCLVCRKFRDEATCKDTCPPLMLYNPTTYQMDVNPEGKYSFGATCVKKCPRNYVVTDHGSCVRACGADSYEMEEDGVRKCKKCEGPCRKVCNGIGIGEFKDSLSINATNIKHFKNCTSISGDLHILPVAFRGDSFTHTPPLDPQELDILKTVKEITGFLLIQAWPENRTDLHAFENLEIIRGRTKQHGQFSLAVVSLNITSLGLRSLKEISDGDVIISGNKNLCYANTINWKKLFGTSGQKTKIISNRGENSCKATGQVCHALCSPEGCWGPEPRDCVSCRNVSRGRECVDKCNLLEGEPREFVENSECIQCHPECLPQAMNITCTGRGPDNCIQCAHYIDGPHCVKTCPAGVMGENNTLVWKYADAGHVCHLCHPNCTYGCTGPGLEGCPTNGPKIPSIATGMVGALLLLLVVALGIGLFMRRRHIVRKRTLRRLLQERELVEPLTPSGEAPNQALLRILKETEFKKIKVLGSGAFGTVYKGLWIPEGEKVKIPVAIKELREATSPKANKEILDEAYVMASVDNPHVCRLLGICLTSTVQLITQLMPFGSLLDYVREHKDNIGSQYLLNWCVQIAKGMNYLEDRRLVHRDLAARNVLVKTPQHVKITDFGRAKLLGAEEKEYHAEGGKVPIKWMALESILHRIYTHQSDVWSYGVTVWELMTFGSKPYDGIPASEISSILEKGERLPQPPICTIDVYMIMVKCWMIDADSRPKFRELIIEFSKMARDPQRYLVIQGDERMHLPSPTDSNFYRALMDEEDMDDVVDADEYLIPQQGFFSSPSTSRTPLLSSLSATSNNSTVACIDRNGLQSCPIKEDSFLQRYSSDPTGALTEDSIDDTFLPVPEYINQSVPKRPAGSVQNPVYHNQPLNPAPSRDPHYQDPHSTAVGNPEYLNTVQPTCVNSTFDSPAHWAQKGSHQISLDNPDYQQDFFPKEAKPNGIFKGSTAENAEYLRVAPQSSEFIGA
assayDetails: Biochemical EGFR kinase assay (Lance Ultra TR-FRET), double mutant L858R/C797S
conditionsUsed: Km ATP; read-out: IC50 L858R/C797S (nM) Km ATP
readoutName: IC50 (nM)
Give the number; nM is assumed, so skip it.

// known answers, use as guide
molecule | studyTarget | IC50 / nM
C=CCn1cc(-c2nccc(Nc3cc(N[C@H]4CC[C@@](C)(O)CC4)c(-c4ccn(C(F)F)n4)cn3)n2)cn1 | EGFR L858R/C797S (Homo sapiens, UniProt P00533, C797S/L858R) | 5
Cn1ccc(-c2cnc(Nc3ccnc(-c4cnn(S(=O)(=O)C5CC5)c4)n3)cc2N[C@H]2CC[C@@H](C(C)(C)O)CC2)n1 | EGFR L858R/C797S (Homo sapiens, UniProt P00533, C797S/L858R) | 1
Cn1nc(-c2cnc(Nc3ccnc(-c4cnn(S(=O)(=O)C5CC5)c4)n3)cc2N[C@H]2CC[C@@H](CO)CC2)cc1C(F)(F)F | EGFR L858R/C797S (Homo sapiens, UniProt P00533, C797S/L858R) | 7
Cn1nc(-c2cnc(Nc3ccnc(-c4cnn(S(=O)(=O)C5CC5)c4)n3)cc2N[C@H]2CC[C@@H](CN3CCC3)CC2)cc1C(F)(F)F | EGFR L858R/C797S (Homo sapiens, UniProt P00533, C797S/L858R) | 0.4

Qu. Specify reported IC50 for the molecule shown: C[C@]1(O)CC[C@@H](Nc2cc(Nc3ccnc(-c4cnn(S(=O)(=O)C5CC5)c4)n3)ncc2-c2cc3n(n2)CCCC3)CC1
Ans. 0.6

Qu. Specify reported IC50 for the molecule shown: Cn1ccc(-c2cnc(Nc3ccnc(-c4cnn(S(=O)(=O)C5CC5)c4)n3)cc2NC2CCCC(NCCF)C2)n1 (stereo not shown)
Ans. 5

Qu. Specify reported IC50 for the molecule shown: O=S(=O)(C1CC1)n1cc(-c2nccc(Nc3cc(NC4CCN(CCF)CC4)c(-c4ccn(C(F)F)n4)cn3)n2)cn1
Ans. 23.7

Qu. Specify reported IC50 for the molecule shown: CS(=O)(=O)n1ccc(-c2nccc(Nc3cc(N[C@H]4CC[C@@](C)(O)CC4)c(-c4ccn(C(F)F)n4)cn3)n2)c1
Ans. 2
